Numbers sourced from paper PMC6210068.

target: CYP2C9 (Homo sapiens, UniProt P11712)
Sequence (P11712 whole entry): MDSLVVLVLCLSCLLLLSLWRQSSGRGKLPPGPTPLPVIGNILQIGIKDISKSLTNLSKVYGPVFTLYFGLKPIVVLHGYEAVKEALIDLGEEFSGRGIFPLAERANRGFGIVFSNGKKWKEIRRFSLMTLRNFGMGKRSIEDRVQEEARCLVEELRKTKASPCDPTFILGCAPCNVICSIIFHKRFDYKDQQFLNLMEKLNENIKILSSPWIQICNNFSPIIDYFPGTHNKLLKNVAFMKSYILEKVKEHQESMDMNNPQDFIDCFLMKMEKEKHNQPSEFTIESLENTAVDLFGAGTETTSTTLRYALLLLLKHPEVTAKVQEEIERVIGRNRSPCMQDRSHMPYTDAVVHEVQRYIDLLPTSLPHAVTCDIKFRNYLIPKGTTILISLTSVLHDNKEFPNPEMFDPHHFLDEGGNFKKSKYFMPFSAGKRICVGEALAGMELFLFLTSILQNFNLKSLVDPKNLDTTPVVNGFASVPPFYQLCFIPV
pIC50: −log10 of the molar value.
metric name: pIC50

The molecule listed as `CCOC(=O)[C@@]12C[C@@H]1[C@@H](n1ccc3c(NC)nc(C#Cc4ccc(Cl)s4)nc31)[C@H](O)[C@@H]2O` has a reported pIC50 of ≤ 5.00

* * *

MOR (Homo sapiens): reported pKi for various compounds.
Sequence (P35372 whole entry): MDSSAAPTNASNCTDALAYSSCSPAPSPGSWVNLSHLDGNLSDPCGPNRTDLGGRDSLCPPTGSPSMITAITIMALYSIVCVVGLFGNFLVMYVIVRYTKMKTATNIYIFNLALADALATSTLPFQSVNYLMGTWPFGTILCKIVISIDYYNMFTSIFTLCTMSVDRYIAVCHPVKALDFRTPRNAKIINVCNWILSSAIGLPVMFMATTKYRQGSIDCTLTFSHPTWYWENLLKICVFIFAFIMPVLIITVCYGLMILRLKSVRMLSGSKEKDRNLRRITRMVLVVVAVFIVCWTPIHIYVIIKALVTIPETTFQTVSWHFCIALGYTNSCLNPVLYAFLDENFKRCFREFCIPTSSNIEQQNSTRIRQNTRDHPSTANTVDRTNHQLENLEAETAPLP
Answer as the number alone; pKi is minus log10 of concentration in mol/L.

As a guide, the following entries are already answered.
compound	metric name	endpoint result
CCOC(=O)[C@@]12C[C@@H]1[C@@H](n1ccc3c(NCC4CC4)nc(C#Cc4ccccc4)nc31)[C@H](O)[C@@H]2O [compound 42]	pKi	5.89
CCOC(=O)[C@@]12C[C@@H]1[C@@H](n1ccc3c(NC)nc(I)nc31)[C@@H]1OC(C)(C)O[C@@H]12 [compound 73]	pKi	5.12
CCOC(=O)[C@@]12C[C@@H]1[C@@H](n1ccc3c(NC4CC4)nc(C#Cc4ccccc4)nc31)[C@H](O)[C@@H]2O [compound 41]	pKi	5.68

Per the record, CCOC(=O)[C@@]12C[C@@H]1[C@@H](n1ccc3c(NC)nc(C#Cc4ccc(Cl)s4)nc31)[C@H](O)[C@@H]2O [compound 28] has pKi of 6.20

Consider CCOC(=O)[C@@]12C[C@@H]1[C@@H](n1ccc3c(NC)nc(C#Cc4ccc(Cl)s4)nc31)[C@@H]1OC(C)(C)O[C@@H]12 [compound 77] . Its measured pKi is 5.82

Recorded result, O[C@@H]1[C@H](O)[C@@H]2C[C@@H]2[C@H]1n1ccc2c(NCCc3ccccc3)nc(C#Cc3ccccc3)nc21 [compound 55] , pKi: 5.40
